The measured values listed here are drawn from PubChem BioAssay AID1321.

- tested.on: Wee1-like protein kinase (Homo sapiens)
- assay.remarks: Wee1 degradation inhibitors, primary screen, cell-based, HeLa, Wee1K328M-luciferase, luminescence (AID 1321);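 also: cells exposed to compound for 20 h before luminescence read; 0% = DMSO alone and 100% = MG132 at 30 µM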
- condition.notes: HeLa Luc-Wee1K328M stability, at 5 µM, hits give high values, 100% = proteasome inhibitor MG132 effect
Out of some 220,000 compounds screened, about 2,600 (1.2%) were called active. The full list was thinned out, with actives kept by preference.
measured.endpoint: reporter increase (%)

• COc1ccccc1NC(=O)c1cc(Cl)nc2ccccc12 = 0.15
• Cn1cc(S(=O)(=O)NC(c2ccccc2)c2ccccc2)c(=O)n(C)c1=O = -2.84
• CCN(CC(=O)NC1CCS(=O)(=O)C1)S(=O)(=O)c1ccccc1 (stereo not drawn) = -0.95
• O=C(Cc1ccccc1)NCc1ccc(F)cc1 = 0.79
• COc1cccc(/C=N\Nc2nncc(-c3ccccc3)n2)c1 = 0.25
• O=C(O)C(c1ccccc1)C1(O)CCCCC1 (stereo not drawn) = 7.89
• COCCN(Cc1cc2cc3c(cc2nc1Cl)OCO3)C(=O)c1cccc(C)c1 = -2.99
• O=C(CSc1ccccc1F)NC1CCS(=O)(=O)C1 (stereo not drawn) = 12.3
• CCOc1cc(NC(=O)c2ccccn2)c(OCC)cc1NC(=O)c1ccc(OC)cc1 = -0.73
• O=C(CNCc1ccc(F)cc1)Nc1ccccc1-c1ccccc1 = 11.8
• O=C(CSc1nn(-c2ccc(F)cc2)c(=S)s1)NC1CCS(=O)(=O)C1 (stereo not drawn) = 0.51
• N#C/C(=C\c1ccc(-c2cccc([N+](=O)[O-])c2)o1)C(=O)NCCN1CCOCC1 = 9.19
• CCOC(=O)COc1nc(C)cc(C(F)(F)F)c1C#N = 8.86
• Cc1cc(C(F)(F)F)c(C#N)c(SCC(=O)NC2CC2)n1 = -3.28
• Cc1ccc(Cc2cnc(NC(=O)/C(C#N)=C/c3ccc(-c4cccc([N+](=O)[O-])c4)o3)s2)cc1 = -0.97
• Nc1ccc(C(=O)NCc2ccccc2)cc1 = 2.22
• CC(C)c1ccc(C(=O)NCCCc2ccccc2)cc1 = -2.16
• c1ccc(Nc2nc(-c3ccncc3)cs2)nc1 = 11.1
• CC(C)COC(=O)n1c(=O)oc2ccc(S(=O)(=O)N3CCCCC3)cc21 = -1.87
• O=C(NCc1ccccc1)c1ccc(S(=O)(=O)Nc2cccc(C(F)(F)F)c2)cc1 = -0.38
• COc1ccc(CC(=O)N/N=C(\C)c2ccccn2)cc1 = 3.82
• CSc1nnnn1-c1c(C)cc(C)cc1C = -0.91
• CCN(CC)CCOc1ccc2c(c1)C(=NNC(=O)c1ccccn1)c1cc(OCCN(CC)CC)ccc1-2 = 13

* * *

Property: reporter increase; scope: individual compounds
- tested.on: Wee1-like protein kinase (Homo sapiens)
- assay.remarks: Wee1 degradation inhibitors, primary screen, cell-based, HeLa, Wee1K328M-luciferase, luminescence (AID 1321);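 also: cells exposed to compound for 20 h before luminescence read; 0% = DMSO alone and 100% = MG132 at 30 µM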
- condition.notes: HeLa Luc-Wee1K328M stability, at 5 µM, hits give high values, 100% = proteasome inhibitor MG132 effect
Among all 220,000 compounds or so, about 2,600 (1.2%) were called active. Only a selection was taken, and actives are over-represented in it overall.
measured.endpoint: reporter increase (%)

- O=C(CCN1c2ccccc2Sc2ccccc21)Nc1ccccc1: 0.76
- NC(=S)N/N=C/c1ccc([N+](=O)[O-])cc1: -3.91
- Cc1ccsc1/C=N/Nc1ccc(Cl)nn1: 1.78
- COCCOC(=O)c1c(C)oc2cc(Br)c(OCC(N)=O)cc12: 10.5
- CCC(=O)/C=C1\Sc2ccccc2N1CC: -1.98
- O=C(N/N=C/c1ccc2c(c1)OCO2)C(=O)N1CCCC1: 2.71
- CCOC(=O)c1c(C)oc2ccc(OCC(=O)N(CC)CC)cc12: -2.85
- NS(=O)(=O)c1ccc(NC(=O)COC(=O)c2cc3ccccc3oc2=O)cc1: -2.85
- CCN1/C(=C/C(=S)Nc2ccccc2)Sc2ccccc21: 11.6
- CSCCC(NS(=O)(=O)c1ccc2c(c1)oc(=O)n2C)C(=O)NCc1ccccc1 (configuration not stated): 5.59
- CCOC(=O)C1CCN(c2c(Nc3cc(C)cc(C)c3)c(=O)c2=O)CC1: -2.25
- Cc1ccc(/C=N/NC(=S)Nc2cccc(S(=O)(=O)N(C)C)c2)o1: 9.21
